biological target: Sialic acid-binding Ig-like lectin 9 (Homo sapiens) (UniProt Q9Y336); assay: Hs-Siglec9 ALPHAscreen SOP 20170721; set-up: scale not given: direction of the effect not stated beside the values; details: 10 µM
Sequence (Q9Y336 whole entry): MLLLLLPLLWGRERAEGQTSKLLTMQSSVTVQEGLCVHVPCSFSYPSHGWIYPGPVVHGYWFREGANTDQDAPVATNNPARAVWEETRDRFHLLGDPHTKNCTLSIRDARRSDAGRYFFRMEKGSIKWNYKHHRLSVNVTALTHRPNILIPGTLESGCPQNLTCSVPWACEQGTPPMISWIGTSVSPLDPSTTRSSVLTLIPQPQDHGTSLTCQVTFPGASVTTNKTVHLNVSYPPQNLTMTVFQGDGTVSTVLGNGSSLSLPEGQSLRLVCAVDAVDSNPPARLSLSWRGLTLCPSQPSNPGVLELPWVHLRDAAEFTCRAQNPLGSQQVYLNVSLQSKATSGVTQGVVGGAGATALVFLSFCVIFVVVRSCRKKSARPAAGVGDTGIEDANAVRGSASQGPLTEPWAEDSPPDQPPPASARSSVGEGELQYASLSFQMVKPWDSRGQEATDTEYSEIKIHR
# reported Percent Effect; entries follow
The response must be a number in % with no trailing unit.

>>> recordedvalue("Cc1nccc(CNC(=O)NCCOc2ccc(F)c(F)c2)n1")
27.5
>>> recordedvalue("Cc1nn(C)cc1CN1CCC(C2Nc3ccccc3S(=O)(=O)N2)CC1 (configuration not stated)")
2.59
>>> recordedvalue("COc1cccc(CN2CCCC(Nc3cccc(F)c3)C2)c1O (configuration not stated)")
18.7

Quick one: Percent Effect of CC(CNC(=O)c1ccc(Cl)cc1I)N1CCCC1 (configuration not stated) ? -1.77

Quick one: Percent Effect of CC(C)c1noc(C(C)N2CCN(CCO)CC2)n1 (configuration not stated) ? -3.22

Quick one: Percent Effect of "O=C(NCCNc1ncccn1)N1CCSCC1" ? 9.38

Quick one: Percent Effect of "Cn1cc(-c2cnc(N3CCOCC3)nc2)cc1C(=O)NCCO" ? -0.344

====

# reported Percent Effect; entries follow
target: Arginase-2, mitochondrial (Homo sapiens) (UniProt P78540); experiment: in vitro enzyme assay to detect the production of urea directly proportional to the activity of Arginase II; format: functional; design: scale not given: in the data most compounds retested in dose-response had high values; conditions: 33.3 µM
Sequence (P78540 whole entry): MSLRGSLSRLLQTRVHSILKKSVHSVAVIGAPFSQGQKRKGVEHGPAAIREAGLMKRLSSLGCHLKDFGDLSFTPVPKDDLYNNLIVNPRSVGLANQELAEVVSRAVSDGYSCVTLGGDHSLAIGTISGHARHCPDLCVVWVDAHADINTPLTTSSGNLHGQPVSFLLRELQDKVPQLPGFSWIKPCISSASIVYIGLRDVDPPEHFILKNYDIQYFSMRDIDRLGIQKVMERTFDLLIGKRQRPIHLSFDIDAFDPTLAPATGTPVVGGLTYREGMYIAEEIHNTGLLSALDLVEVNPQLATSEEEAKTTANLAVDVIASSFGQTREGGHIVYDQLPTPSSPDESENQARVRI
The response must be a number in % with no trailing unit.

GET /values?readout=Percent Effect&system=Arginase-2, mitochondrial (Homo sapiens) (UniProt P78540)&item= "Cc1noc(C(C)C)c1C(=O)NCc1cccc(N(C)C)c1" -2.49

====

# reported Percent Effect; entries follow
target: Ubiquitin-activating enzyme e1, putative (Leishmania donovani (strain BPK282A1)); assay: Leishmania donovani Ubiquitin Activating Enzyme (LdE1); format: functional; design: scale not given: direction of the effect not stated beside the values; details: 30 µM
Measured potencies and affinities stand elsewhere.
The response must be a number in % with no trailing unit.

>>> recordedvalue("COCc1n[nH]/c(=N/C(=O)COc2cnc(C)cc2O)s1")
-5.26

Quick one: Percent Effect of COc1ccc(OC)c(NC(=O)NCC(O)c2ccc(F)c(F)c2)c1 (stereo not drawn) ? 8.86

Quick one: Percent Effect of "CCCNC(=O)CNC(=O)CCc1ccccc1Br" ? 6.94

Quick one: Percent Effect of "c1ccc(NCc2cn3c(n2)CN(Cc2cccnc2)CC3)nc1" ? 13.5

Quick one: Percent Effect of CC(C)C(C(=O)N1CCN(c2ccncc2)CC1)n1cncn1 (stereo not drawn) ? 15.6

====

# reported Percent Effect; entries follow
target: AMP-activated protein kinase, AMPK (Homo sapiens) (UniProt P54646+O43741+P54619+Q9UGJ0+Q9Y478+Q13131+Q9UGI9); test: AMP-dependent Kinase enzyme assay. An in vitro enzyme assay that detects ADP turnover that is directly proportional to AMPK activity. This uses naive AMPK that is activated during the assay with MK-8722; format: functional; parameters: scale not given: direction of the effect not stated beside the values; conditions: 30 µM
The response must be a number in % with no trailing unit.

>>> recordedvalue("Cc1cnn(C2CN(CC(O)c3ccc(F)cc3)C2)c1 (configuration not stated)")
-7.34
>>> recordedvalue("CO[C@H]1CCN(c2ccc(C)nn2)[C@H]1Cc1cnn(C)c1")
-6.04
>>> recordedvalue("COCCC(=O)N1CCN(CCN(C)C)c2ncccc2C1")
4.52
>>> recordedvalue("O=C1CC2(CCN(c3nncs3)C2)CN1c1ccccc1 (configuration not stated)")
-3.44
>>> recordedvalue("Cc1nc(-c2ccccc2)n(CC(=O)NCC(C)C)n1")
-9.59
>>> recordedvalue("CCc1ccc(-n2c(=O)[nH]c3nc(N4CCSCC4)ncc3c2=O)cc1")
0.234

Quick one: Percent Effect of "Cc1nnc2n1CCN(Cc1csc(Cc3ccccc3)n1)C2" ? -7.1

Quick one: Percent Effect of COc1cccc(C(=O)N2CCCC(C(=O)CCc3ccccc3)C2)c1 (configuration not stated) ? 17.6

Quick one: Percent Effect of "Cc1ccc(CN(Cc2c[nH]cn2)C2CC(C)(C)NC(C)(C)C2)o1" ? 13.8

Quick one: Percent Effect of "c1sc(C2CCCC2)nc1CN1CCn2c(nnc2C2CC2)C1" ? 0.718

Quick one: Percent Effect of "Cc1nc(C)c(CC(=O)N2C[C@H]3CC[C@@H]2CN(C(=O)N(C)C)C3)c(=O)[nH]1" ? -2.11

Quick one: Percent Effect of "Cc1cc(C(=O)N2CC[C@H](OCC3CC3)[C@@H]2Cc2cccnc2)no1" ? 0.886

Quick one: Percent Effect of CNC(=O)CCc1cc(C)nc(C2CCCN2)c1 (configuration not stated) ? 6.02

Quick one: Percent Effect of "c1ccc(-c2noc(CN3CCC(c4ccn[nH]4)CC3)n2)cc1" ? -9.82

Quick one: Percent Effect of "O=C(c1ccn(-c2ccccc2Cl)n1)N1CCSCC1" ? 1.31

Quick one: Percent Effect of "CC(=O)N1CCN(C(=O)CCCc2nc(C(C)C)no2)CC1" ? 2.62

Quick one: Percent Effect of CC(CNC(=O)c1cccnc1Oc1cccnc1)N(C)C (configuration not stated) ? -3.66

These data points were gathered from ChEMBL document CHEMBL3988442.
